Assay: Bidirectional permeability assay (Caco-2 cells)
Type: in vitro ADME
Conditions: human, Caco-2, pH 7.4, absorptive direction (A2B), 10 μM in FaSSIF buffer
Procedure: Bidirectional Permeability Assay (Caco-2 Cells) […] On the day of assay, Caco-2 monolayers were washed twice with transport buffer (HBSS, pH 7.4) and pre-incubated for 30 min (37° C., 5% CO2, 95% RH) in an incubator. The electrical resistance of the monolayers was measured with a Millicell®-ERS system. […] The mean apparent permeability (Papp, ×10^−6 cm/sec) of the test compounds, atenolol, propranolol and digoxin were calculated as follows: […]
Each entry below lists one item and its recorded Papp A→B at 120 min, 10 μM value.

{"compound": "CCCCC1CN(c2ccccc2)c2cc(SCC)c(OCC3(C(=O)O)CC3)cc2S(=O)(=O)N1C (centres unmarked) [Example 7]", "uom": "×10⁻⁶ cm/s", "Papp A→B at 120 min, 10 μM": 8.1}
{"compound": "CCCCC1CN(c2ccccc2)c2cc(SC)c(OCC3(C(=O)O)CC3)cc2S(=O)(=O)N1C (single isomer, unassigned) [4, enantiomer 2]", "uom": "×10⁻⁶ cm/s", "Papp A→B at 120 min, 10 μM": 18.8}
{"compound": "CCCCC1CN(c2ccccc2)c2cc(SC)c(OCC(C)(OC)C(=O)O)cc2S(=O)(=O)N1C (single isomer, unassigned) [Example 23]", "uom": "×10⁻⁶ cm/s", "Papp A→B at 120 min, 10 μM": 10.6}
{"compound": "CCCCC1CN(c2ccccc2)c2cc(SC)c(OCC(OC)C(=O)O)cc2S(=O)(=O)N1C (single isomer, unassigned) [32, diastereomer 1]", "uom": "×10⁻⁶ cm/s", "Papp A→B at 120 min, 10 μM": 5.2}
{"compound": "CCCCC1CN(c2ccccc2)c2cc(SCC)c(OCC(C)(C)C(=O)O)cc2S(=O)(=O)N1C (centres unmarked) [Example 5]", "uom": "×10⁻⁶ cm/s", "Papp A→B at 120 min, 10 μM": 9.4}
